B1: ANKRD40 (parent)
chain: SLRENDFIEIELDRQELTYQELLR

- Variants of: B1
- Protocol summary: protein stability index of a GFP-peptide fusion (GPS, HEK-293T) (PSI 1-6); higher = more stable;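 also: lentivirally expressed fusions sorted by FACS into six bins by GFP to DsRed ratio, PSI derived from sequencing read proportions per bin multiplied by bin number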
- Test conditions: c terminus: a fixed tail appended
Respond with satisfied for protein stability index values of 3 and above, not satisfied for values below.

{"Mutation id": "I8R", "Label": "satisfied"}
{"Mutation id": "Q15L", "Label": "not satisfied"}
{"Mutation id": "T18L", "Label": "not satisfied"}
{"Mutation id": "Q15R", "Label": "satisfied"}
{"Mutation id": "R24G", "Label": "satisfied"}
{"Mutation id": "I8Q", "Label": "satisfied"}
{"Mutation id": "E21P", "Label": "not satisfied"}
{"Mutation id": "Y19P", "Label": "satisfied"}
{"Mutation id": "L22M", "Label": "satisfied"}
{"Mutation id": "E21N", "Label": "not satisfied"}
{"Mutation id": "E11G", "Label": "satisfied"}
{"Mutation id": "E16N", "Label": "satisfied"}
{"Mutation id": "D6Q", "Label": "not satisfied"}
{"Mutation id": "Q15K", "Label": "satisfied"}
{"Mutation id": "E4I", "Label": "not satisfied"}
{"Mutation id": "S1T", "Label": "satisfied"}

The measurements presented in this section are drawn from the supplement of paper PMC10567573.
